Values were extracted from paper PMC9040839.

target system: PacA(ECA_RS10935)-LBD (Pectobacterium atrosepticum)
Sequence (Q6D515 entry or part of it): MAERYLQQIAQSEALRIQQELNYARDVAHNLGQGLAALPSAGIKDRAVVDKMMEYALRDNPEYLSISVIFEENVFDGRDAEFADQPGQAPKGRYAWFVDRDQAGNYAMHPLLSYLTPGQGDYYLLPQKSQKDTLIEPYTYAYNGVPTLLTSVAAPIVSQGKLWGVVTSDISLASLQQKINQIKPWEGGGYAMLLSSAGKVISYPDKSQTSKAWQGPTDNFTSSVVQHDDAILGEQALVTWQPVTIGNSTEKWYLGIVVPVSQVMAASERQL
protocol notes: Isothermal titration calorimetry of PacA-LBD with ligands
Format: binding, P. atrosepticum SCRI1043
experimental context: ITC, 25°C, pH 7.0
Each entry below lists one item and its recorded ΔH value.

Recorded results for 2 molecules are shown here.
C[N+](C)(C)CCO | -2.1 ± 0.2 kcal/mol
C[N+](C)(C)C[C@H](O)CC(=O)[O-] | -4.9 ± 0.4 kcal/mol

From here, focus on the item given below.
Lookup: Return value of ΔH for input "C[N+](C)(C)CC(=O)O" , no commentary.
Found: -16.1 ± 0.1 kcal/mol

* * *

target system: PctD(PA4633)-LBD (Pseudomonas aeruginosa)
Sequence (Q9HVF8 entry or part of it): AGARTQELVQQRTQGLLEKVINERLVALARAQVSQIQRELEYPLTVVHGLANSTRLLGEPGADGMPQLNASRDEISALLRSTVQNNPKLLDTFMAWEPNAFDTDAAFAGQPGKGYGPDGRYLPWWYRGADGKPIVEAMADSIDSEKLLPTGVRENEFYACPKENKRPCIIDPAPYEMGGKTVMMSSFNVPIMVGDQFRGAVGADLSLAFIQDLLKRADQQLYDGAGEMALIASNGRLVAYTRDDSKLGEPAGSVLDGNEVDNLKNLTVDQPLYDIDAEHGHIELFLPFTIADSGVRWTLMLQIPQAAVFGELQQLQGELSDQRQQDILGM
protocol notes: biochemical
experimental context: ITC, 25°C, pH 7.5
Each entry below lists one item and its recorded ΔH value.
Record the value in kcal/mol, omitting the unit from your answer.

Recorded results for 2 compounds are shown here.
C[N+](C)(C)CCO | -20.3
CC(=O)OCC[N+](C)(C)C | -12.2

From here, focus on the item given below.
Lookup: Return value of ΔH for input "C[N+](C)(C)CC(=O)O" , no commentary.
Found: -2.4
